Target: Metabotropic glutamate receptor 4 (Homo sapiens)
Sequence (Q14833 whole entry): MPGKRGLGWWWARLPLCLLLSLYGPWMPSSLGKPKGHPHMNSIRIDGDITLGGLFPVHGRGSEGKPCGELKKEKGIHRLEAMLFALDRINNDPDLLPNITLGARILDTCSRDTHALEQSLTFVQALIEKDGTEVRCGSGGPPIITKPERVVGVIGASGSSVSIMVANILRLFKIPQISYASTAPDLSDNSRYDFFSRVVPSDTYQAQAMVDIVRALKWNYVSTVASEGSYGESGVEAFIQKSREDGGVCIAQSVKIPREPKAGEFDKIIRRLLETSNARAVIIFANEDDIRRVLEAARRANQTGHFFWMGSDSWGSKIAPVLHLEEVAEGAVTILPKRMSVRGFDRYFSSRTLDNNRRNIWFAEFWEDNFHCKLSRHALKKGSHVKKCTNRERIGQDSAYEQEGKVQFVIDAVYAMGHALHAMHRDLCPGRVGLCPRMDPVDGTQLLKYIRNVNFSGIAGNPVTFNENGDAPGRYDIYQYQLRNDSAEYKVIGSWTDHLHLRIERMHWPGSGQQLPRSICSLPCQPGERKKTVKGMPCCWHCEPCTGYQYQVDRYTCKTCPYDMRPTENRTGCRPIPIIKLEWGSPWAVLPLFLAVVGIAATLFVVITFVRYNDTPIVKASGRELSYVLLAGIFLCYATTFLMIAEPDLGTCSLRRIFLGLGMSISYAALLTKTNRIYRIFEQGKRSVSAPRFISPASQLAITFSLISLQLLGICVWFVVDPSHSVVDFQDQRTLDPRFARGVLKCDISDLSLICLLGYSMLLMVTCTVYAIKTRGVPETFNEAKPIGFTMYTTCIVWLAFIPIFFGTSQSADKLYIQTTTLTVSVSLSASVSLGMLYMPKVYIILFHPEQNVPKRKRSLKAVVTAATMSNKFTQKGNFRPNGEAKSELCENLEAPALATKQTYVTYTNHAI
Assay: Antagonist activity at recombinant human mGlu4 receptor expressed in hamster AV12 cells co-expressing human EAAT1/Galpha1s assessed as inhibition of Ca2+ flux by Fluo-3-AM dye based FLIPR assay
Readout Type: IC50

The value of IC50 measured for the compound N[C@]1(C(=O)O)[C@@H]2[C@@H](C(=O)O)[C@@H]2[C@H](O)[C@H]1OCc1ccc(Cl)c(Cl)c1 turned out to be > 12.5 µM

* * *

Assay: Drug uptake in NIH Swiss Webster mouse brain at 3 mg/kg, ip at 30 mins
Assay type: ADME, organism-based
Conditions: read-out: Drug uptake
Readout Type: concentration at 0.5 h

The value of concentration at 0.5 h measured for the molecule N[C@]1(C(=O)O)[C@@H]2[C@@H](C(=O)O)[C@@H]2[C@H](O)[C@H]1OCc1ccc(Cl)c(Cl)c1 turned out to be 248 nM

* * *

Experiment: Ratio of drug level in brain to plasma in mouse at 10 mg/kg, ip after 30 mins
Assay type: ADME, organism-based
Details: read-out: BPR
Readout Type: Kp at 0.5 h
Format: numeric value only, no unit, no commentary.

The value of Kp at 0.5 h measured for the compound N[C@]1(C(=O)O)[C@@H]2[C@@H](C(=O)O)[C@@H]2[C@H](O)[C@H]1OCc1ccc(Cl)c(Cl)c1 turned out to be 0.015

* * *

Biological target: CYP2C9 (Homo sapiens, UniProt P11712)
Sequence (P11712 whole entry): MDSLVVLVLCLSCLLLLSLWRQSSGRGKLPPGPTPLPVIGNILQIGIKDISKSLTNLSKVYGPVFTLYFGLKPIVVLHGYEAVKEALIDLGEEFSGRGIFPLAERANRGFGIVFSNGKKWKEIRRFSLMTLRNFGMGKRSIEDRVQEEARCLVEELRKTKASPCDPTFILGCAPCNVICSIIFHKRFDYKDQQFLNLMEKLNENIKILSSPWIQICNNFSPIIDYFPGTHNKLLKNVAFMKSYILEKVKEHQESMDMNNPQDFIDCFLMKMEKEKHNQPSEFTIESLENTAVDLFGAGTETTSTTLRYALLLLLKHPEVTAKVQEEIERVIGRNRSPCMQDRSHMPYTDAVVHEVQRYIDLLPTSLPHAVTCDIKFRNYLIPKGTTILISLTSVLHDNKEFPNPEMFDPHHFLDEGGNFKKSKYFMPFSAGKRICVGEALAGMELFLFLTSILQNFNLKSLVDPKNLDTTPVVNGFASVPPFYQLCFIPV
Assay: Inhibition of human CYP2C9 at 10 uM
Format: ADME
Readout Type: inhibition at 10 µM

The value of inhibition at 10 µM measured for the molecule N[C@]1(C(=O)O)[C@@H]2[C@@H](C(=O)O)[C@@H]2[C@H](O)[C@H]1OCc1ccc(Cl)c(Cl)c1 turned out to be < 5%

* * *

Biological target: Metabotropic glutamate receptor 7 (Homo sapiens)
Sequence (Q14831 whole entry): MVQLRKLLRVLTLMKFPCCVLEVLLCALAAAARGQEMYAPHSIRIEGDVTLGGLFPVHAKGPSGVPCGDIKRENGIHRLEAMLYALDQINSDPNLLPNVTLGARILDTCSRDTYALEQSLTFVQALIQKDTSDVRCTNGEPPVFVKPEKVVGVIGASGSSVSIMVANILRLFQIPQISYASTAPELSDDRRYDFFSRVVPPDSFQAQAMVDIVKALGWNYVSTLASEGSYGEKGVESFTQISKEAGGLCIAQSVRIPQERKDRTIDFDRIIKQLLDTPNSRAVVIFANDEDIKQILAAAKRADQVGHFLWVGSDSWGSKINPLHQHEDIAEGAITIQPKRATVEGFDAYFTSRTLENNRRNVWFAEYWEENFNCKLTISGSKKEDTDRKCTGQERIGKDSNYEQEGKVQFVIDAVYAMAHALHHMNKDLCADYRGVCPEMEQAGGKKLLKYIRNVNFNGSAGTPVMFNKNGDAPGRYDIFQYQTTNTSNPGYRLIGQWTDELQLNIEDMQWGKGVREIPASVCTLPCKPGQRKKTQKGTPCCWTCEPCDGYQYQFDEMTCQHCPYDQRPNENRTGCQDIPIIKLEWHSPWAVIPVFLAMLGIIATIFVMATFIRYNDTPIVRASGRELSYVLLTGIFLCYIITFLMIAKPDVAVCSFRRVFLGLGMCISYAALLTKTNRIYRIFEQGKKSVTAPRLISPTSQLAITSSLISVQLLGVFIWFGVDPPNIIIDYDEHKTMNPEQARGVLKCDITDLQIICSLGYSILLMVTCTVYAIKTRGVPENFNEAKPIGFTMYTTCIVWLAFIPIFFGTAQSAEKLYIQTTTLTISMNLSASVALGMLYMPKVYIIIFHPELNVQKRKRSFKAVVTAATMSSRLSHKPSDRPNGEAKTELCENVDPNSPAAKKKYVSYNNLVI
Test: Antagonist activity at recombinant human mGlu7 receptor expressed in hamster AV12 cells co-expressing human EAAT1/Galpha1s assessed as inhibition of Ca2+ flux by Fluo-3-AM dye based FLIPR assay
Readout Type: IC50 (µM)
Numbers only; they are read as µM.

IC50 on Metabotropic glutamate receptor 7 (Homo sapiens) for N[C@]1(C(=O)O)[C@@H]2[C@@H](C(=O)O)[C@@H]2[C@H](O)[C@H]1OCc1ccc(Cl)c(Cl)c1 is 10.5

* * *

Test: Plasma concentration in NIH Swiss Webster mouse at 0.3 mg/kg, ip at 30 mins
Format: ADME, organism-based
Readout Type: concentration at 0.5 h (nM)
Numbers only; they are read as nM.

The value of concentration at 0.5 h measured for the compound N[C@]1(C(=O)O)[C@@H]2[C@@H](C(=O)O)[C@@H]2[C@H](O)[C@H]1OCc1ccc(Cl)c(Cl)c1 turned out to be 1290

* * *

Target: Metabotropic glutamate receptor 8 (Homo sapiens)
Sequence (O00222 whole entry): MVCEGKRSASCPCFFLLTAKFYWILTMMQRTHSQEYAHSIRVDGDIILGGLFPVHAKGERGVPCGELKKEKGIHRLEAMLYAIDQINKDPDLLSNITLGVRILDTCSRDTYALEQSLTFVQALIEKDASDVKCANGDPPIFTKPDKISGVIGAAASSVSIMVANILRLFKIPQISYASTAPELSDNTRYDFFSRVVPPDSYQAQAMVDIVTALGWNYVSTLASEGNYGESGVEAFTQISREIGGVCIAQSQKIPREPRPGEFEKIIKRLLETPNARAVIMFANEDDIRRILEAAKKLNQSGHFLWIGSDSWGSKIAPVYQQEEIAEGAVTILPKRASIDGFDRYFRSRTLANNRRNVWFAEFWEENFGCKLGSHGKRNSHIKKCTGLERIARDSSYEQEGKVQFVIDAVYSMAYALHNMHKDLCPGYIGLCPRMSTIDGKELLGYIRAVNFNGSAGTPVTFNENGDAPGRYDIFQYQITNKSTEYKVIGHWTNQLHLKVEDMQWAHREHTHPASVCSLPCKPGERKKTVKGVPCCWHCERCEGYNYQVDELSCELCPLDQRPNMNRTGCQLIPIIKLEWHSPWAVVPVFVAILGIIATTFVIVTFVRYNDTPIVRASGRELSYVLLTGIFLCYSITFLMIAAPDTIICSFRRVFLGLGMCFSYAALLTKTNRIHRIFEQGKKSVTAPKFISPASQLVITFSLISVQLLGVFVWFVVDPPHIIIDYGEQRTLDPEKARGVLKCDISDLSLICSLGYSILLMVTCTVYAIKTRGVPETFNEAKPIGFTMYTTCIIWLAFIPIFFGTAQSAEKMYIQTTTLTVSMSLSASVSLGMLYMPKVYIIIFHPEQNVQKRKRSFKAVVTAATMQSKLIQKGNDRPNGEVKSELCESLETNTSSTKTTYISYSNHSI
Test: Agonist activity at recombinant human mGlu8 receptor expressed in hamster AV12 cells co-expressing human EAAT1 assessed as induction of forskolin-stimulated cAMP formation after 20 mins by HTRF assay
pEC50: −log10 of the molar value.
Readout Type: pEC50

The value of pEC50 measured for the compound N[C@]1(C(=O)O)[C@@H]2[C@@H](C(=O)O)[C@@H]2[C@H](O)[C@H]1OCc1ccc(Cl)c(Cl)c1 turned out to be < 4.30

* * *

These records show pKi for Metabotropic glutamate receptor 2 (Homo sapiens, UniProt Q14416).
Value format note: pKi is -log10 of concentration (mol/L); just state the number.

- Mol: "N[C@]1(C(=O)O)[C@@H]2[C@@H](C(=O)O)[C@@H]2[C@@H](O)[C@H]1OCc1ccc(Cl)c(Cl)c1"
  Experimental System: "Metabotropic glutamate receptor 2 (Homo sapiens, UniProt Q14416)"
  Observed: 7.12

Next up:
The value of pKi measured for the molecule N[C@]1(C(=O)O)[C@@H]2[C@@H](C(=O)O)[C@@H]2[C@H](O)[C@H]1OCc1ccc(Cl)c(Cl)c1 turned out to be 7.70
